Assay: Percutaneous penetration/permeation in static Franz-type diffusion cells with split-thickness human cadaver skin
Format: in vitro ADME
Settings: solution b (1% in propylene glycol/oleyl alcohol 9:1); batch of skin 3; 48 hours; stratum corneum removed
Measured Metric: Skin concentration (µg/g)
// return numeric value only (unit: µg/g, not printed)

See these solved cases before continuing.
In [3]: df
Out[3]:
                                   compound  endpoint_value
0  Nc1cc(Oc2ccc3c(C(=O)Nc4cccc(C(F)(F)F)c4)cccc3c2)ncn1 [drawing 77]              34
1  Nc1nccc(Oc2ccc3c(C(=O)Nc4cccc(C(F)(F)F)c4)cccc3c2)n1 [drawing 76]              24
2  Nc1nccc(Oc2ccc3c(C(=O)Nc4ccc(F)c(C(F)(F)F)c4)cccc3c2)n1              46

Now, please, on to the next compound.
For Nc1cc(Oc2ccc3c(C(=O)Nc4ccc(F)c(C(F)(F)F)c4)cccc3c2)ncn1 [drawing 78] the compound record lists Skin concentration as 19

====

Measured Metric: melting point

Some solved cases for reference:
>>> print(df.to_string())
                  compound_structure_string  measured_metric  endpoint_value
0  CN(C)CCNC(=O)c1cc(Oc2ccc3c(C(=O)Nc4cccc(C(F)(F)F)c4)cccc3c2)ccn1    melting point     80 to 82 °C
1  COC(=O)Nc1nccc(Oc2ccc3c(C(=O)Nc4cccc(C(F)(F)F)c4)cccc3c2)n1    melting point   199 to 200 °C
2  CCCCOC(=O)c1cc(Oc2ccc3c(C(=O)Nc4cccc(C(F)(F)F)c4)cccc3c2)ccn1    melting point   128 to 130 °C
3  CC(C)NC(=O)c1cc(Oc2ccc3c(C(=O)Nc4cccc(C(F)(F)F)c4)cccc3c2)ncn1    melting point   205 to 208 °C
4  Nc1nccc(CCc2ccc3c(C(=O)Nc4cccc(C(F)(F)F)c4)cccc3c2)n1    melting point   225 to 227 °C
5  CNC(=O)c1cc(Oc2ccc3c(C(=O)Nc4cccc(C(F)(F)F)c4)cccc3c2)ccn1    melting point   175 to 177 °C
6  Nc1cc(C#Cc2ccc3c(C(=O)Nc4cccc(C(F)(F)F)c4)cccc3c2)ncn1    melting point   217 to 220 °C

Record summary for CNc1cc(Oc2ccc3c(C(=O)Nc4ccc(N5CCOCC5)c(C(F)(F)F)c4)cccc3c2)ncn1 : reported melting point = 156 to 157 °C

====

Listing of recorded Permeation rate by entry.
Assay: Percutaneous penetration/permeation in static Franz-type diffusion cells with split-thickness human cadaver skin
Type: in vitro ADME
Settings: solution b (1% in propylene glycol/oleyl alcohol 9:1); batch of skin 3
Procedure: Frozen human dorsal cadaver skin (Caucasian; back skin) was obtained from the National Disease Research Interchange, Philadelphia, USA. Skin from three different donors was used; Thawed skin samples were dermatomed to 0.7 mm with an Aesculap dermatome to obtain “split-thickness” skin. Percutaneous penetration was studied in vitro by means of static Franz-type diffusion cells with phosphate buffered saline/fetal calf serum 2:1 as receptor fluid at 32° in triplicates for 48 hours. […]
Respond numerically; units are ng/mL/h and should not be typed.

For orientation, consider the following solved cases.
In [3]: df
Out[3]:
                                   compound  endpoint_value
0  Nc1nccc(Oc2ccc3c(C(=O)Nc4cccc(C(F)(F)F)c4)cccc3c2)n1 [drawing 76]               8
1  Nc1cc(Oc2ccc3c(C(=O)Nc4cccc(C(F)(F)F)c4)cccc3c2)ncn1 [drawing 77]              12
2  Nc1cc(Oc2ccc3c(C(=O)Nc4ccc(F)c(C(F)(F)F)c4)cccc3c2)ncn1 [drawing 78]              22

Permeation rate for Nc1nccc(Oc2ccc3c(C(=O)Nc4ccc(F)c(C(F)(F)F)c4)cccc3c2)n1 is 19
